Test system: T-47D breast
Experiment: NCI tumour cell line growth inhibition, 48 h
Classification by TGI | ranges: class 0 = under 7 µM, class 1 = from 7 µM up to 40 µM, class 2 = 40 µM and over

Consider the following illustrative entries.
compound=CN(C)C(=S)/N=c1\ssc(=S)n1Cc1ccco1 label_class="class 2"
compound=COc1c(-c2ccc3c(c2)OCO3)oc2cc(O)cc(O)c2c1=O label_class="class 2"
compound=O=C(O/N=c1/ccc(=O)/c(=N\OC(=O)c2ccccc2)c1=O)c1ccccc1 label_class="class 2"
compound="COc1ccc(/C=C2\\CCC(C)c3c2nc(N)c(C#N)c3-c2ccc(OC)c(OC)c2)cc1OC (centres undefined)" label_class="class 0"
compound=CC(=O)CCc1ccc(Oc2c3c(nc4ccccc24)OCC3)cc1 label_class="class 1"
compound="CC(C)(C)[Si](C)(C)OCCc1ccccc1C1CC2(S(=O)(=O)c3ccccc3)ON1CC2S(=O)(=O)c1ccccc1 (centres undefined)" label_class="class 2"

Record CC(C)(C)C(=O)c1c(C(F)(F)F)n([O-])c2cc(Cl)c(Cl)cc2[n+]1=O — which class? class 0

Please indicate the class for O=C(N=Nc1c(Cl)c(O)c2ccccc2c1O)C(=O)Nc1cccc(C(F)(F)F)c1 based on its TGI. class 2

Given CO[C@@H]1C[C@H]2[C@@H]3CC[C@H]([C@H](C)COC(C)=O)[C@@]3(C)CC[C@@H]2[C@@]2(C)CC[C@H]3C[C@]312 , name the class its TGI places it in. class 2

Input O=C1C=C(NCC(c2ccccc2)c2ccccc2)C(=O)c2ncccc21 ; output its category class 1

Entry Cc1c(NC(=O)CSC(=S)N(C)C)c(=O)n(-c2ccccc2)n1C belongs to which category? class 2

Attribution: PubChem BioAssay (NCI)
